Target: T1, human cMet expressed on 3T3 cells (human, UniProt P08581 25-1390)
T1 construct: whole, on cells; cells fixed with glutaraldehyde; also called cell surface-expressed human cMet; 3T3 cells that over-express human cMet
T1 sequence (P08581 25-1390): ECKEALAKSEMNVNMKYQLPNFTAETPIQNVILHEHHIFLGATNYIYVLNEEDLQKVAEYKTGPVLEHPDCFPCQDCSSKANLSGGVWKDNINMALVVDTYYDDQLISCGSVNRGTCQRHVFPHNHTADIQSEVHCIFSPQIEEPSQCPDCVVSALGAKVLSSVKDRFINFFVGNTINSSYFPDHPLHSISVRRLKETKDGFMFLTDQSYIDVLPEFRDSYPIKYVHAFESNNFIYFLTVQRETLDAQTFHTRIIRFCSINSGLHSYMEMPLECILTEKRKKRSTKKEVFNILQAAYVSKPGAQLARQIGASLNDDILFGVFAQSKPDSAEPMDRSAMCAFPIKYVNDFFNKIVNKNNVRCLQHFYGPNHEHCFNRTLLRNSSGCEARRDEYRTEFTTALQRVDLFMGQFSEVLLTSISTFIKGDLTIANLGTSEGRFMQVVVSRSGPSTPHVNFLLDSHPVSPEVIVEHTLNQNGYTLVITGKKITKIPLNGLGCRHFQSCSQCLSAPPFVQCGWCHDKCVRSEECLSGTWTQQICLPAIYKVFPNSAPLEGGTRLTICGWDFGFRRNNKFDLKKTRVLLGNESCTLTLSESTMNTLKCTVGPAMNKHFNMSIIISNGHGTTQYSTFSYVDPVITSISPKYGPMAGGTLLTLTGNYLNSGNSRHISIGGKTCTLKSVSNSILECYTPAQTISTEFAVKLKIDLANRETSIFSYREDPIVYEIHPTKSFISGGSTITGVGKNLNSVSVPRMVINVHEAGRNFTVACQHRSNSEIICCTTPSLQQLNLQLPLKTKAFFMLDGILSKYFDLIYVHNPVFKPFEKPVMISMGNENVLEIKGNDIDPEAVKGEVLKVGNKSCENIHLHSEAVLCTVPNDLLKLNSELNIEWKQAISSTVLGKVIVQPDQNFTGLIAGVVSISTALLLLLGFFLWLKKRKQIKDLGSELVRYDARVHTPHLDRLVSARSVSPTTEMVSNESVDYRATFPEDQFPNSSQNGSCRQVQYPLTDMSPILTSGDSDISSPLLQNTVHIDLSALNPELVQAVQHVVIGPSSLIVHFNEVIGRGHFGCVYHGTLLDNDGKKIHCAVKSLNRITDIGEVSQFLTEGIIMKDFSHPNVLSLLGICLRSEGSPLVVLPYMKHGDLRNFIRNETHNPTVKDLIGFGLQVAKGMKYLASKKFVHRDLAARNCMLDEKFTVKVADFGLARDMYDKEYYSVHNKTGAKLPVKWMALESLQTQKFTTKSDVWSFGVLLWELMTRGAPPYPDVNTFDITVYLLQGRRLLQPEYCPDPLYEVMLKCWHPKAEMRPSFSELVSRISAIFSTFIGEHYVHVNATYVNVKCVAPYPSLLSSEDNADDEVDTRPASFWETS
Assay: whole cell phage ELISA, 3T3 human cMet vs 3T3
Below is a list of entries, each paired with its recorded WC ELISA (fold over background) value.
Numeric only. Scale: fold

Previously resolved entries follow.
- binder: "AGSIQCKGPPWFSCAMYGT [325-H05 peptide-displaying phage (SEQ ID NO: 048)]"
  measured.metric: "WC ELISA (fold over background)"
  observed.result: 1.47
- binder: "GSYYDCREFQCNKPAP [465-A06 peptide-displaying phage (SEQ ID NO: 002)]"
  measured.metric: "WC ELISA (fold over background)"
  observed.result: 1.33
- binder: "AGPWKCTGPPTFSCIQFGT [548-D08 peptide-displaying phage (SEQ ID NO: 090)]"
  measured.metric: "WC ELISA (fold over background)"
  observed.result: 1.23
- binder: "AGHAWCSGPPRFECWPPGT [329-D02 peptide-displaying phage (SEQ ID NO: 061)]"
  measured.metric: "WC ELISA (fold over background)"
  observed.result: 1.27
- binder: "AGVIVCNLSMMYCLYPGT [499-C09 peptide-displaying phage (SEQ ID NO: 023)]"
  measured.metric: "WC ELISA (fold over background)"
  observed.result: 1.33
- binder: "AQMYQTPDGVIGKFVDWMFN [119-F06 peptide-displaying phage (SEQ ID NO: 455)]"
  measured.metric: "WC ELISA (fold over background)"
  observed.result: 1.33

The reported value for AGDWICHGPPMFECEWVGT [547-H07 peptide-displaying phage (SEQ ID NO: 058)] in terms of WC ELISA (fold over background) is 1.17

The reported value for AQHQYGQMMVLHIQYDMGEFIP [117-F08 peptide-displaying phage (SEQ ID NO: 462)] in terms of WC ELISA (fold over background) is 1.27

The reported value for GSFAPCGWPSFAIDCIAEAP [545-C11 peptide-displaying phage (SEQ ID NO: 367)] in terms of WC ELISA (fold over background) is 1.3

The reported value for AGSWECTGPPSFHCQWYGT [551-G12 peptide-displaying phage (SEQ ID NO: 070)] in terms of WC ELISA (fold over background) is 1.37

The reported value for AGDWHCQGPPAFMCWMIGT [330-C01 peptide-displaying phage (SEQ ID NO: 065)] in terms of WC ELISA (fold over background) is 1.3

The reported value for AGTIRCNLAMMVCMFEGT [444-B08 peptide-displaying phage (SEQ ID NO: 028)] in terms of WC ELISA (fold over background) is 1.43

The reported value for AGLLGCWDMPMECTGEGT [465-B11 peptide-displaying phage (SEQ ID NO: 036)] in terms of WC ELISA (fold over background) is 1.27

The reported value for AGNWICNLSEMRCYPKGT [456-E04 peptide-displaying phage (SEQ ID NO: 013)] in terms of WC ELISA (fold over background) is 1.4

The reported value for AGWGWCSGPPMFMCTEYGT [551-A05 peptide-displaying phage (SEQ ID NO: 099)] in terms of WC ELISA (fold over background) is 1.3
